Test system: Alternaria alternata
Assay: Antifungal activity against Alternaria alternata DSM 2006 by microdilution technique
Type: functional
Property measured: MIC (µg/mL)

A. C=C(CCO)C(=O)O[C@H]1C/C(C)=C/CC/C(CO)=C/[C@H]2OC(=O)[C@H](C)[C@H]12
B. C=C(C(=O)O[C@H]1C/C(C)=C/CC/C(CO)=C/[C@H]2OC(=O)[C@H](C)[C@H]12)C(O)CO (stereo partly specified)
Which value of MIC is greater, the one for A or the one for B ? # respond with the chosen item's label
A

----------
MBC by entry:
Tested on: Micrococcus luteus
Assay: Antibacterial activity against Micrococcus flavus ATCC 10240 by microdilution technique
Assay type: functional
Report only the number, with the unit µg/mL understood.

Below: 5 compounds and their reported MBC.
compound="C=C(CCO)C(=O)O[C@H]1C[C@]2(C)C([C@H]3OC(=O)[C@H](C)[C@H]13)[C@@H](C=O)CC[C@H]2O (stereo partly specified)" numeric_value=0.3
compound="C=C(C(=O)O[C@H]1C/C(C)=C/CC/C(CO)=C/[C@H]2OC(=O)[C@H](C)[C@H]12)C(O)CO (stereo partly specified)" numeric_value=0.3
compound="CN[C@@H]1[C@H](O[C@H]2[C@H](O[C@H]3[C@H](O)[C@@H](O)[C@H](N=C(N)N)[C@@H](O)[C@@H]3N=C(N)N)O[C@@H](C)[C@]2(O)C=O)O[C@@H](CO)[C@H](O)[C@H]1O (stereo in doubt)" numeric_value=1
compound=CC(=O)OC/C=C(/CO)C(=O)O[C@H]1C/C(C)=C/CC/C(CO)=C/[C@H]2OC(=O)[C@H](C)[C@H]12 numeric_value=0.3
compound="C=C(CCO)C(=O)O[C@H]1C[C@]2(C)C([C@H](C=O)CC[C@H]2O)[C@H]2OC(=O)[C@H](C)[C@H]12 (stereo partly specified)" numeric_value=0.3

Shifting focus to the compound that follows.
So, C=C(CCO)C(=O)O[C@H]1C/C(C)=C/CC/C(CO)=C/[C@H]2OC(=O)[C@H](C)[C@H]12 ? Its MBC was 0.3
